Test: DNDI: Solubility in phosphate buffered saline at pH7.4 measured by optical density (turbidimetry) at room temperature (OD-RT)
Type: physicochemical
Conditions: pH 7.4
reported property: solubility kinetic (µM)

Some solved entries appear below for comparison.
compound="CCCCCC(C)NCc1coc(-c2ccc(OC)cc2)n1 (configuration not stated)" obs_value=6.3
compound=COc1ccc(/C(=N/O)NC2CCCCC2)cc1 obs_value=50
compound="CCCCCC(C)NCc1ccc(-c2ccccc2)cc1 (configuration not stated)" obs_value=12.5

1. CCCCCC(C)NCc1coc(-c2cccc(Cl)c2)n1 (configuration not stated)
2. O/N=C(/NC1CCCCC1)c1cccnc1Oc1ccccc1
Task: Of 1 and 2 , whose reported solubility kinetic is numerically smaller? Give the chosen item's label as your response.
Output: 1
(1: 12.5 µM, 2: 63 µM)

----------
Experiment: in vitro
Conditions: mouse, liver microsomes, t (1 / 2)
Description: DNDI: half life in mouse liver microsomes at a concentration of 1uM
reported property: half-life at 1 µM (min)

a. COc1ccccc1CNC(CCc1ccccc1)c1nc(-c2ccccc2)c(N2CCOCC2)o1 (stereo unspecified)
b. CCCCCC(C)NCc1coc(-c2ccc(OC3CCC3)cc2)n1 (stereo unspecified)
c. CC(C)CNC(CCc1ccccc1)c1nc(Cc2ccccc2)c(N2CCCCC2)o1 (stereo unspecified)
d. CCOc1ccc(-c2nc(CNC3CC(C)CC(C)(C)C3)co2)cc1 (stereo unspecified)
Task: Output the listed items in decreasing order of half-life at 1 µM. Enter labels, ranked according to the request.
Output: b, d, c, a

a. COc1ccc(CNC(CC(C)C)c2nc(Cc3ccccc3)c(N3CCOCC3)o2)cc1 (stereo unspecified)
b. CCCCCC(C)NCc1coc(-c2ccc(Oc3ccc(C)cc3)cc2)n1 (stereo unspecified)
Task: Returns: the argument ( a or b ) having the larger half-life at 1 µM. Give the chosen item's label as your response.
Output: b
(b: 70 min, a: 2 min)

A. CCCCCC(C)NCc1coc(-c2ccc(OCc3ccc(Cl)cc3)cc2)n1 (stereo unspecified)
B. COc1ccc(/C(=N/O)Nc2cccc(F)c2)cc1
Task: Of A and B , whose reported half-life at 1 µM is numerically smaller? Give the chosen item's label as your response.
Output: B

----------
Test: DNDI: Cytotoxicity against L929 mouse fibroblasts, 72 hour.
Format: toxicity, cell-based
Conditions: mouse, L929 mouse fibroblasts
reported property: IC50 at 72 h (µg/mL)
Respond numerically; units are µg/mL and should not be typed.

compound="CCCCCC(C)NCc1coc(-c2ccc(Cl)cc2)n1 (configuration not stated)" units_label=µg/mL obs_value=4.88
compound="CCCCc1ccc(-c2nc(CNC(C)c3ccccc3)co2)cc1 (configuration not stated)" units_label=µg/mL obs_value=3.33
compound="CCCCCC(C)NCc1cc(-c2ccccc2)n(C)n1 (configuration not stated)" units_label=µg/mL obs_value=12.8

Task: Give IC50 at 72 h for the following compound: "CC(C)Oc1ccc(-c2nc(CNC[C@@H]3CC[C@H]4C[C@@H]3C4(C)C)co2)cc1"
Output: 1.36

Task: Give IC50 at 72 h for the following compound: CCCCOc1ccc(-c2nc(CNCCC3CCCN3C)co2)cc1 (configuration not stated)
Output: 2.9

Task: Give IC50 at 72 h for the following compound: CCCCCC(C)NCc1coc(-c2cccc(OC(F)(F)F)c2)n1 (configuration not stated)
Output: 6.48

----------
Assay: DNDI: Cytotoxicity against L929 mouse fibroblasts, CYTO-SP, 24 hour
Format: toxicity, cell-based
Settings: mouse, L929 mouse fibroblasts
Here the recorded IC50 at 24 h is given for each entry.

Some solved entries appear below for comparison.
molecule="CCCOc1ccc(-c2nc(CNC3[C@H]4C[C@@H]5C[C@@H](C[C@H]3C5)C4)co2)cc1 (stereo not given in full)" reported_property="IC50 at 24 h" obs_value="> 50 µg/mL"
molecule=Clc1ccc(-c2nc(CNC3CCCC3)co2)cc1 reported_property="IC50 at 24 h" obs_value="> 50 µg/mL"
molecule=Cc1ccc(/C(=N/O)NCC(C)(C)C)c(Oc2cc(Cl)ccc2Cl)n1 reported_property="IC50 at 24 h" obs_value="27 µg/mL"
molecule=CCCCOc1ccc(-c2nc(CN[C@@H]3C[C@@H]4C[C@H]([C@H]3C)C4(C)C)co2)cc1 reported_property="IC50 at 24 h" obs_value="8.05 µg/mL"
molecule=OC/C(=N\O)c1ccccc1 reported_property="IC50 at 24 h" obs_value="> 50 µg/mL"

Task: Give IC50 at 24 h for the following molecule: "C[C@@H]1[C@H]2C[C@@H](C[C@H]1N/C(=N\O)c1ccccc1-c1ccccc1)C2(C)C"
Output: 17 µg/mL

Task: Give IC50 at 24 h for the following molecule: "O/N=C(\NC1CCCCC1)c1ccccc1Br"
Output: > 50 µg/mL

Task: Give IC50 at 24 h for the following molecule: "COc1cccc(CN/C(=N\O)c2cccnc2Oc2ccc(Cl)cc2)c1"
Output: > 50 µg/mL

Task: Give IC50 at 24 h for the following molecule: CC(C)c1ccc(Oc2ncccc2/C(=N/O)NCC2CCCO2)cc1 (stereo not given)
Output: > 50 µg/mL

Task: Give IC50 at 24 h for the following molecule: "N#Cc1cccnc1Oc1ccccc1Br"
Output: > 50 µg/mL

Task: Give IC50 at 24 h for the following molecule: "O/N=C(\NCC1CCCCC1)c1cccnc1Oc1c(F)cccc1F"
Output: > 50 µg/mL

Task: Give IC50 at 24 h for the following molecule: "c1ccc(-c2ccc(-c3nc(CNC4CCCCCC4)co3)cc2)cc1"
Output: 25.3 µg/mL

Task: Give IC50 at 24 h for the following molecule: "C(=N\OCc1ccccc1)/c1ccccc1-c1ccccc1"
Output: > 50 µg/mL

Task: Give IC50 at 24 h for the following molecule: "CO/N=C/c1ccccc1-c1ccccc1"
Output: > 50 µg/mL

Task: Give IC50 at 24 h for the following molecule: "O/N=C(\NC1CCCCC1)c1ccccc1"
Output: 50 µg/mL

Task: Give IC50 at 24 h for the following molecule: "Clc1ccc(-c2nc(CNc3ccccc3)co2)cc1"
Output: > 50 µg/mL

Task: Give IC50 at 24 h for the following molecule: "CCCCOc1ccc(-c2nc(CNC[C@@H]3CC[C@H]4C[C@@H]3C4(C)C)co2)cc1"
Output: 16.4 µg/mL

Task: Give IC50 at 24 h for the following molecule: CCOc1ccccc1-c1nc(CNC2C[C@@H]3C[C@H]([C@H]2C)C3(C)C)co1 (stereo not given in full)
Output: 27.8 µg/mL

Task: Give IC50 at 24 h for the following molecule: "CSc1ccccc1Oc1ncccc1/C(=N/O)NCC1CC1"
Output: > 50 µg/mL

Task: Give IC50 at 24 h for the following molecule: "CCc1cccc(N/C(=N/O)c2ccccc2-c2ccccc2)c1"
Output: 25.3 µg/mL

Task: Give IC50 at 24 h for the following molecule: "CCOc1ccc(-c2nc(CN(C)Cc3coc(-c4ccc(OCC)cc4)n3)co2)cc1"
Output: > 50 µg/mL

Task: Give IC50 at 24 h for the following molecule: Cc1ccc(/C(=N/O)NC2CCC(C)CC2)c(OCc2ccccn2)n1 (stereo not given)
Output: > 50 µg/mL

Task: Give IC50 at 24 h for the following molecule: Brc1ccc(-c2nc(CNC3[C@H]4C[C@@H]5C[C@@H](C[C@H]3C5)C4)co2)cc1 (stereo not given in full)
Output: > 50 µg/mL

Task: Give IC50 at 24 h for the following molecule: "CCCCc1ccc(-c2nc(C(F)(F)F)co2)cc1"
Output: > 50 µg/mL

Task: Give IC50 at 24 h for the following molecule: "COc1ccc(C(=O)NC2CCCCC2)c(OC)c1"
Output: > 50 µg/mL

Task: Give IC50 at 24 h for the following molecule: "COc1cc(C)ccc1Oc1nc(C)ccc1/C(=N/O)NCC(C)(C)C"
Output: < 50 µg/mL

Task: Give IC50 at 24 h for the following molecule: C[C@H]1C(NCc2coc(-c3ccccc3Br)n2)C[C@@H]2C[C@H]1C2(C)C (stereo not given in full)
Output: 43.2 µg/mL

Task: Give IC50 at 24 h for the following molecule: "O/N=C(\NC1CCCCC1)c1cccnc1Oc1c(F)cccc1F"
Output: > 50 µg/mL

Task: Give IC50 at 24 h for the following molecule: "CCN(CC)Cc1coc(-c2ccc(Cl)cc2)n1"
Output: > 50 µg/mL

Task: Give IC50 at 24 h for the following molecule: "CC(C)(C)c1ccc(-c2nc(CNC3CCCCCC3)co2)cc1"
Output: > 50 µg/mL

----------
Here the recorded IC50 at 24 h is given for each entry.
Assay: DNDI: Cytotoxicity against L929 mouse fibroblasts, CYTO-SP, 24 hour
Assay type: toxicity, cell-based
Details: mouse, L929 mouse fibroblasts

Some solved entries appear below for comparison.
molecule="CCCCCC(C)NCc1coc(-c2ccc(C(C)(C)C)cc2)n1 (stereo unspecified)" obs_value="9 µg/mL"
molecule=CC(C)CO/N=C/c1ccccc1-c1ccccc1 obs_value="> 50 µg/mL"
molecule=Cc1ccccc1CN/C(=N\O)c1cccnc1Oc1cc(Cl)ccc1Cl obs_value="33.6 µg/mL"
molecule="CC1CCC(N/C(=N\\O)c2cccnc2Oc2ccc(F)cc2Cl)CC1 (stereo unspecified)" obs_value="28 µg/mL"
molecule=CCOc1ccccc1CN/C(=N\O)c1cccnc1Oc1ccc(C)c2c1CCC2 obs_value="> 50 µg/mL"

Task: Give IC50 at 24 h for the following molecule: "COc1ccc(/C(=N/O)NCC2CCCCC2)cc1"
Output: > 50 µg/mL

Task: Give IC50 at 24 h for the following molecule: CCCCCC(C)NCc1coc(-c2cc3ccccc3s2)n1 (stereo unspecified)
Output: > 50 µg/mL

Task: Give IC50 at 24 h for the following molecule: "CCCOc1ccc(-c2nc(CNC[C@@H]3CC[C@H]4C[C@@H]3C4(C)C)co2)cc1"
Output: 16 µg/mL

Task: Give IC50 at 24 h for the following molecule: "CCc1ccccc1N/C(=N\O)c1ccccc1-c1ccccc1"
Output: 16.3 µg/mL

Task: Give IC50 at 24 h for the following molecule: "CCOc1ccc(-c2nc(CCl)co2)cc1"
Output: > 5 µg/mL
